In this section we review reported pIC50 values for a set of compounds.
Biological target: C-terminal catalytic domain of MALT1 (amino acid residues 329-824) (Homo sapiens, UniProt Q9UDY8)
Sequence (Q9UDY8 329-824): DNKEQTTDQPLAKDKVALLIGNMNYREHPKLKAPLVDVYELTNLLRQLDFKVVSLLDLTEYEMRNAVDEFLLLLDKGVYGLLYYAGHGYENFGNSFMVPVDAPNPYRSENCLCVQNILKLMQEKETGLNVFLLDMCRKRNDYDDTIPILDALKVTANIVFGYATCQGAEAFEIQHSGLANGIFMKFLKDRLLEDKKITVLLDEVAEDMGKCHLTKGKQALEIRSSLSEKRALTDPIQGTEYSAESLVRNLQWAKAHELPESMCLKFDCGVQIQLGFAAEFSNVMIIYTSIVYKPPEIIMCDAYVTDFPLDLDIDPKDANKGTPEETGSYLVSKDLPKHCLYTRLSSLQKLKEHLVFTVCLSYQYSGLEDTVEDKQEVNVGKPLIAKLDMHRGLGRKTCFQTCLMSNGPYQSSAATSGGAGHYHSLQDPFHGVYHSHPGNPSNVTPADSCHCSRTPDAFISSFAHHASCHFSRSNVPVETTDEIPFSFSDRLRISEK
pIC50: −log10 of the molar value.
experimental_endpoint: pIC50

>>> measured_value("CCCn1cc(C(=O)c2cnn(-c3cncc4c(F)cccc34)c2C(F)(F)F)c2cc(Cl)c(-c3ncccn3)nc21 [Example 26]")
7.29
>>> measured_value("C[C@@H]1CC(C(=O)c2cn(C3CC3)c3nc(-n4nccn4)c(Cl)cc23)C[C@@H](C)N1c1ncc(F)cc1I (stereo partly shown) [Example 16]")
6.51
>>> measured_value("Cn1cc(C(=O)c2cnn(-c3cncc4c(F)cccc34)c2C(F)(F)F)c2cc(Cl)c(-n3nccn3)nc21 [Example 6]")
7.89
>>> measured_value("CCn1cc(C(=O)C2C[C@@H](C)N(c3ncc(F)cc3I)[C@H](C)C2)c2cc(Cl)c(-n3nccn3)nc21 (stereo partly shown) [Example 14]")
7.24
>>> measured_value("COc1nc2c(cc1Cl)c(C(=O)c1cnn(-c3cncc4c(F)cccc34)c1C(F)(F)F)cn2C [Example 32]")
7.27
>>> measured_value("Cn1cc(C(=O)c2cnn(-c3cccc4nnsc34)c2C(F)(F)F)c2cc(Cl)c(-n3nccn3)nc21 [Example 28]")
7.62
>>> measured_value("O=C(c1cnn(-c2cncc3sccc23)c1C(F)(F)F)c1cn(C2COC2)c2nc(-n3nccn3)c(Cl)cc12 [Example 25]")
7.72

* * *

Molecular target: C-terminal catalytic domain of MALT1 (amino acid residues 329-824) (Homo sapiens)
Sequence (Q9UDY8 329-824): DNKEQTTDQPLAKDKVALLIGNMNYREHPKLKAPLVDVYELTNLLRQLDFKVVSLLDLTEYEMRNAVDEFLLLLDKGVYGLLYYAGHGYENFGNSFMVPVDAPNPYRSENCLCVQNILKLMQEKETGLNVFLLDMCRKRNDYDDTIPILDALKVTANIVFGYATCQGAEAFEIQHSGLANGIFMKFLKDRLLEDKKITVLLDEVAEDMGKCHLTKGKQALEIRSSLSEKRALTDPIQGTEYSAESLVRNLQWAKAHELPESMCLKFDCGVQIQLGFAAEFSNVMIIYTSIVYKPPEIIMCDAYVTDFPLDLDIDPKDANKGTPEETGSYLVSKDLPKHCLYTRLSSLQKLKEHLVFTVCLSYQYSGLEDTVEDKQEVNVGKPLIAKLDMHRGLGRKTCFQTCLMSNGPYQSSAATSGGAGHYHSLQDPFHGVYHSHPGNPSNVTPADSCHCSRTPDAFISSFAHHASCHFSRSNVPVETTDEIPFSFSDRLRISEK
experimental_endpoint: log10 of IC50 (log10 of the value in nM)

>>> measured_value("C[C@@H]1CC(C(=O)c2cn(CC#N)c3nc(-n4nccn4)c(Cl)cc23)C[C@@H](C)N1c1ncc(F)cc1I (some centres unmarked)")
1.63
>>> measured_value("CC(C)n1cc(C(=O)C2C[C@@H](C)N(c3ncc(F)cc3I)[C@H](C)C2)c2cc(Cl)c(-n3nccn3)nc21 (some centres unmarked)")
2.20
>>> measured_value("C[C@@H]1CC(C(=O)c2cn(C3COC3)c3nc(-n4nccn4)c(Cl)cc23)C[C@@H](C)N1c1ncc(F)cc1I (some centres unmarked)")
1.65
>>> measured_value("C[C@@H]1C[C@H](C(=O)c2cn(C)c3nc(S(=O)(=O)N4CCNCC4)c(Cl)cc23)CCN1c1ncc(F)cc1Cl (racemic)")
1.30
>>> measured_value("Cn1cc(C(=O)c2cnn(-c3cccn4nccc34)c2C(F)(F)F)c2cc(Cl)c(-n3nccn3)nc21")
0.76
>>> measured_value("Cn1cc(C(=O)c2cnn(-c3cccc4nnsc34)c2C(F)(F)F)c2cc(Cl)c(-c3ncccn3)nc21")
1.23
>>> measured_value("C[C@@H]1CC(C(=O)c2cn(C3COC3)c3nc(-c4ncccn4)c(Cl)cc23)C[C@@H](C)N1c1ncc(F)cc1I (some centres unmarked)")
1.83
>>> measured_value("C[C@@H]1C[C@H](C(=O)c2cn(C)c3nc(-n4nccn4)c(Cl)cc23)CCN1c1ncncc1Br (racemic)")
1.00
>>> measured_value("Cn1cc(C(=O)c2cnn(-c3cncc4c(F)cccc34)c2C(F)(F)F)c2cc(Cl)c(-c3ncccn3)nc21")
1.04
>>> measured_value("CCn1cc(C(=O)C2C[C@@H](C)N(c3ncc(F)cc3I)[C@H](C)C2)c2cc(Cl)c(-c3ncccn3)nc21 (some centres unmarked)")
1.81
>>> measured_value("C[C@@H]1CC(C(=O)c2cn(C3CCS(=O)(=O)CC3)c3nc(-n4nccn4)c(Cl)cc23)C[C@@H](C)N1c1ncc(F)cc1I (some centres unmarked)")
1.96
>>> measured_value("CCn1cc(C(=O)c2cnn(-c3cncc4c(F)cccc34)c2C(F)(F)F)c2cc(Cl)c(-n3nccn3)nc21")
1.40
>>> measured_value("C[C@@H]1CC(C(=O)c2cn([C@H]3CCOC3)c3nc(-n4nccn4)c(Cl)cc23)C[C@@H](C)N1c1ncc(F)cc1I (some centres unmarked)")
1.64
>>> measured_value("C[C@@H]1CC(C(=O)c2cn(C)c3nc(-c4ncccn4)c(Cl)cc23)C[C@@H](C)N1c1ncc(F)cc1I (some centres unmarked)")
1.73
